Multiple publications report pIC50 for Autotaxin (Homo sapiens, UniProt Q13822); what follows is a combined list.
pIC50: −log10 of the molar value.
quantity.measured: pIC50

Past entries and their recorded results:
O=C(c1cc(OCC2CCOCC2)nc(C2CC2)c1)N1C[C@@H]2CN(Cc3ccc4[nH]c(=O)oc4c3)C[C@H]2C1 : 7.96
CC(C)c1cc(C#N)ccc1OCC(=O)N1CC[C@@H]2CN(C(=O)c3ccc4[nH]nnc4c3)C[C@@H]2CC1 : 7.85
O=C(c1ccc2cc(Cl)ccc2c1)N1C[C@@H]2[C@H](C1)[C@H]1CN(C(=O)c3ccc4[nH]nnc4c3)C[C@@H]21 : 7.47
O=C(/C=C/c1ccc(OC(F)(F)F)cc1)N1CC[C@@H]2CN(C(=O)NCc3cnn[nH]3)C[C@@H]2CC1 : 7.42
CN(C)C(=O)c1cccc(-c2cc(C#N)c(Cl)cc2OCc2n[nH]c(=O)n2C)c1 : 7.03
O=C(/C=C/c1cccc(OC(F)(F)F)c1)N1C[C@H]2CCN(C(=O)c3ccc4[nH]nnc4c3)C[C@@H]2C1 : 6.94

P = O=C(OCc1ccc(Cl)c(Cl)c1)N1CCC2(CC1)CN(C(=O)c1ccc3[nH]nnc3c1)C2
Q = N#Cc1ccc(COC(=O)N2CCc3cc(C(=O)N4CCc5[nH]nnc5C4)nn3CC2)cc1F
INPUT: Hi! Which is lower in terms of pIC50, the first one P or the second one Q ? Return value: the label identifying the chosen record.
OUTPUT: Q

1 = CC(C)(C)c1cc(Br)ccc1OCC(=O)N1C[C@@H]2CN(C(=O)c3ccc4[nH]nnc4c3)C[C@H]2C1
2 = Cc1cc(OCc2n[nH]c(=O)n2C)c(-c2cc(C(=O)NC3CC3)ccc2F)cc1Cl
INPUT: When 1 and 2 are compared, which has the higher number for pIC50? Please reply using the label of the selected record.
OUTPUT: 1
